System: MOLM-13
assayInfo: Antiproliferative activity against human MOLM-13 cells harboring FLT3-ITD mutant assessed as reduction in cell viability measured after 72 hrs by MTS assay
Format: functional, cell-based
testSettings: MOLM-13, 72 h
measuredQuantity: IC50 (nM)
Field: numeric (nM). Do not append units.

Inquiry: Please give the documented IC50 of COc1cc(CNc2ccc3c(c2)ncn3-c2ccccc2)ccc1OCCO
Reply text: 66.8

Inquiry: Please give the documented IC50 of COc1ccc(CNc2ccc3c(c2)ncn3-c2ccccc2)cc1OC
Reply text: 113

Inquiry: Please give the documented IC50 of COc1ccc(CNc2ccc3c(c2)ncn3-c2ccccc2)cc1OCCO
Reply text: 78.2
